Where do the numbers come from? From PubChem BioAssay.

Tested on: wheat germ agglutinin (Triticum aestivum), Alexa647-labelled
Assay: wheat germ agglutinin binders on compound microarrays, profiling panel, artefact control for SMM control-protein annotation, biochemical, small-molecule microarray, 635/667 nm fluorescence (AID 1140);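 further: score merges 667 nm feature emission with signal to noise over triplicate slides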
Settings: WGA-A647 binding, 635 nm fluorescence, higher = more signal
Note to self: values exactly at 0.2 are yes. So composite z-score at or above 0.2 is yes, below is no.

compound	class
CCCC[C@@H](O)C1=C(C)Cn2c(=O)n(-c3ccccc3)c(=O)n2[C@H]1CO	yes
COc1ccc([Si](C)(C)[C@H]2[C@H](CC(=O)N(CCO)Cc3ccccc3)O[C@@]3(C(=O)N(c4ccccc4)c4ccccc43)[C@@H]2C)cc1	no
COCCOC(=O)N1C(=O)[C@@]2(c3cc(C#CCNC(N)=O)ccc31)[C@H](C(=O)Nc1nc3ccccc3s1)[C@H]1C(=O)O[C@H](c3ccccc3)[C@H](c3ccccc3)N1[C@@H]2c1ccc(O)cc1	yes
COCCOC(=O)N1C(=O)[C@@]2(c3cc(C#CCNC(N)=O)ccc31)[C@H](c1ccccc1OCCO)N1[C@H](c3ccccc3)[C@H](c3ccccc3)OC(=O)[C@H]1[C@@H]2C(=O)N1CCCCCCC1	yes

Prompt: Reported composite z-score at or above 0.2? C=CCOC(=O)[C@H]1[C@@H]2C(=O)O[C@@H](c3ccccc3)[C@@H](c3ccccc3)N2[C@@H](c2ccc(OCCOC(=O)[C@@H]3C[C@@H]4C(=O)N[C@@H](Cc5ccccc5)C(=O)N4[C@@H]3c3ccc(O)cc3)cc2)[C@]12C(=O)Nc1ccc(I)cc12
Response: no

Prompt: Reported composite z-score at or above 0.2? C=CC[C@H](O)c1ccc(O)c2ccccc12
Response: yes

Prompt: Reported composite z-score at or above 0.2? COC(=O)[C@@]1(Cc2ccccc2)[C@H]2c3cc(C(=O)N(C)C)n(CCF)c3C[C@H]2CN1C(=O)c1ccccc1
Response: yes

Prompt: Reported composite z-score at or above 0.2? COc1ccc([Si](C)(C)[C@H]2[C@H](CC(=O)N(CCO)Cc3ccccc3)O[C@@]3(C(=O)N(Cc4cccc(N5CCCCC5=O)c4)c4ccccc43)[C@@H]2C)cc1
Response: yes

Prompt: Reported composite z-score at or above 0.2? CN1C2C=C(c3ccc(CO)cc3)C(C3C(=O)N(C(N)=O)C(=O)C32)C1C1CC1 (stereo not drawn)
Response: yes

---

Target: Carbonic anhydrase 2 (Homo sapiens)
Assay: CAII small-molecule binders, profiling panel, biochemical, small-molecule microarray, Alexa647-labelled CAII (AID 1122)
Conditions: CAII-A647 binding fluorescence, higher = more signal
endpoint label: composite z-score
Just the number, please, no unit after it.

Example results:
> print(dat)
                               query.smiles  observed.value
1  COc1ccc([Si](C)(C)[C@H]2[C@H](CC(=O)N(CCO)Cc3ccccc3)O[C@@]3(C(=O)N(c4ccccc4)c4ccccc43)[C@@H]2C)cc1            0.34
2  CN(C)C(=O)[C@]1(CCS(=O)(=O)c2ccccc2)N=C(c2ccc(OCCCO)cc2)O[C@@H]1c1ccccc1CN=[N+]=[N-]            0.73
3  O=C1O[C@H](c2ccccc2)[C@H](c2ccccc2)N2[C@H]1[C@@H](C(=O)Nc1nc3ccccc3s1)[C@]1(C(=O)Nc3ccccc31)[C@H]2c1ccccc1OCCO           0.393
4  C=C(COC)/C(=C/C[C@@H](OC(C)=O)c1cccc(OCCO)c1)c1cnc2ccccc2c1            0.98
5  CCCCC(=C=CC[C@@H](O)c1ccccc1OCCO)C[C@@H](O)c1ccccn1           0.678

Prompt: Give the measured composite z-score of [N-]=[N+]=NCc1ccccc1[C@H]1OC(c2ccc(OCCCO)cc2)=N[C@@]1(Cc1ccccc1N=[N+]=[N-])C(N)=O .
Response: 0.743

Prompt: Give the measured composite z-score of COC(=O)[C@@]1(Cc2ccc(F)cc2)[C@H]2c3cc(C(=O)N(C)C)n(CCF)c3C[C@H]2CN1C(=O)c1ccccc1 .
Response: 0.733
